System: Hs-578T
Test: NCI tumour cell line growth inhibition, 48 h
Calls of active or inactive are those of the source. Cut-off read from the data, not from the text of the source: active = GI50 up to about 1.1 µM and inactive = higher.
Recorded GI50, one value per entry.
measured.parameter: GI50

molecule="C=C1C(=O)OC2CC3(C)OC3CC/C(C)=C/C(OC(C)=O)C12 (centres undefined)" result="13.2 µM (inactive)"
molecule=CC(=O)O[C@@H]1CN(S(=O)(=O)c2ccc(C)cc2)C[C@@H]1C1CCCCC1 result="11.5 µM (inactive)"
molecule=O=P(c1ccccc1)(c1ccccc1)N1O[C@@H](c2ccccc2)C=C[C@H]1c1ccccc1 result="14.2 µM (inactive)"
molecule="COc1ccc(CN(Cc2ccc(OC)cc2)C(=O)CC2(O)CCc3ccccc3C2)cc1 (centres undefined)" result="40.3 µM (inactive)"
molecule=Cc1ccc(C2=Nn3c(nc4sc5c(c4c3=O)CCCC5)SC2)cc1 result="35.7 µM (inactive)"
molecule="CCCCC(=O)N/S(=N/C(=O)c1ccccc1)C(Cl)(Cl)Cl (centres undefined)" result="> 100 µM (inactive)"
molecule="COc1ccc(/C=C2\\CCC(CN3CCOCC3)C2=O)cc1 (centres undefined)" result="3.04 µM (inactive)"
molecule="C=C[C@H]1CC[C@H]2[C@@H]3CC=C4C[C@@H](OC5OCC(O)C(O)C5O)CC[C@]4(C)[C@H]3CC[C@]12C (some centres undefined)" result="17.1 µM (inactive)"
molecule=COc1cc(/C=C/C(=O)CC(=O)/C=C/c2cc(OC)c(O)c(OC)c2)cc(OC)c1O result="7.93 µM (inactive)"
